Exercise: state measured IC50 for each of the molecules provided.
assay: Antiplatelet activity against rabbit platelet assessed as inhibition of collagen-induced platelet aggregation preincubated for 3 mins by turbidimetric method; type: functional, cell-based; conditions: Oryctolagus cuniculus
Report as a plain number; the unit µM is understood.

Check the records and state IC50 for CC(C)=CCc1c(O)ccc(C(=O)/C=C/c2ccc(O)cc2)c1O
65.1

Check the records and state IC50 for CC(C)=CCc1cc(-c2coc3cc(O)ccc3c2=O)ccc1O
62.4

Check the records and state IC50 for CC(=O)Oc1ccccc1C(=O)O
30.5
